TARGET_OR_TEST_SYSTEM: GABAA channels composed of α1β3 subunits (Rattus norvegicus, UniProt P62813+P63079)
Sequence (P62813 28-455): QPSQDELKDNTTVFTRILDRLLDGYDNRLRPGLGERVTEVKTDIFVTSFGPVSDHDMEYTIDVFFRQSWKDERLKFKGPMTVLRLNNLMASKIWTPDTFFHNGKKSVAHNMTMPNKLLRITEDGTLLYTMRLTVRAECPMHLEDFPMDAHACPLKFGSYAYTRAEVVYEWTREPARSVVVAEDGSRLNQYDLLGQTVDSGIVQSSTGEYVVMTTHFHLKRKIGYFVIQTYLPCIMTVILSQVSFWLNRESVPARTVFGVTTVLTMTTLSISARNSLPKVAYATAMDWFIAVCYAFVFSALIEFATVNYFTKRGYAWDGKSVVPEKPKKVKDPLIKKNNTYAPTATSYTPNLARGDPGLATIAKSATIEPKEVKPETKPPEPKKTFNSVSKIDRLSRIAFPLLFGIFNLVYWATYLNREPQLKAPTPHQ
Sequence (P63079 26-473): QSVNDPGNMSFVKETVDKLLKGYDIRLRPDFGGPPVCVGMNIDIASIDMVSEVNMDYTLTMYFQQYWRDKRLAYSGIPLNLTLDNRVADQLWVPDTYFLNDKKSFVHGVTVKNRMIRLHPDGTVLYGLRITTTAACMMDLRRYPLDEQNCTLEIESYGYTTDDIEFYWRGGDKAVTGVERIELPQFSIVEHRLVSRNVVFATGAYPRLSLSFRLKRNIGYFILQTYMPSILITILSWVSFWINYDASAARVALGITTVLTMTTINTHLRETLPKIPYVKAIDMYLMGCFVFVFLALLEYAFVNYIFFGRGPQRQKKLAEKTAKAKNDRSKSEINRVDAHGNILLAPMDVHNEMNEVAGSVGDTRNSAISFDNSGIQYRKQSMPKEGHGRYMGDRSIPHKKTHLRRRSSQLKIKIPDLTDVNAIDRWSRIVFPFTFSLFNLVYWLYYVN
ASSAY_NAME: Modulation of IGABA, two-microelectrode voltage-clamp on recombinant GABAA receptors expressed in Xenopus laevis oocytes
CONDITION_DESCRIPTION: GABA EC3-5
QUANTITY: EC50 (µM)

Some solved entries appear below for comparison.
[[record]]
structure_smiles_string = "CNC(=O)/C(C)=C/[C@@H]1CC[C@@H](C)[C@H]2CCC(C)=C12"
quantity = "EC50"
value_unit = "µM"
val = 26.3

[[record]]
structure_smiles_string = "CC1=C2[C@H](/C=C(\\C)C(=O)NC(C)C)CC[C@@H](C)[C@H]2CC1"
quantity = "EC50"
value_unit = "µM"
val = 22.5

[[record]]
structure_smiles_string = "CC1=C2[C@H](/C=C(\\C)C(=O)N3CCCCC3)CC[C@@H](C)[C@H]2CC1"
quantity = "EC50"
value_unit = "µM"
val = 54.6

[[record]]
structure_smiles_string = "CCNC(=O)/C(C)=C/[C@@H]1CC[C@@H](C)[C@H]2CCC(C)=C12"
quantity = "EC50"
value_unit = "µM"
val = 23.4

[[record]]
structure_smiles_string = "CCN(CC)C(=O)/C(C)=C/[C@@H]1CC[C@@H](C)[C@H]2CCC(C)=C12"
quantity = "EC50"
value_unit = "µM"
val = 23.7


1 = CC1=C2[C@H](/C=C(\C)C(=O)N3CCOCC3)CC[C@@H](C)[C@H]2CC1
2 = CCCCNC(=O)/C(C)=C/[C@@H]1CC[C@@H](C)[C@H]2CCC(C)=C12
3 = CC1=C2[C@H](/C=C(\C)C(=O)N(C)C)CC[C@@H](C)[C@H]2CC1
Please put the entries in order of rising EC50. Return the labels ranked in the requested order, please. 2, 3, 1

Cited source for all entries: patent US8809395B2
